// values below are reported pEC50
# Test system: HCV genotype 1b (Con1) replicon in HUH-7 cells
# assayName: HCV replicon luciferase reporter assay, genotype 1b
# Format: cell-based
# details: Hepatitis C virus, Huh-7, 72 h, HCV genotype 1b replicon luciferase, 3 days incubation, read-out: LE_1b (EC50, range)
pEC50: −log10 of the molar value.

Below are worked cases with known answers.
C[C@H]1CC/C=C\[C@@H]2C[C@@]2(C(=O)NS(=O)(=O)C2CC2)NC(=O)[C@@H]2C[C@@H](Oc3nccc4c5c(ccc34)OC(F)(F)O5)CN2C(=O)[C@@H](NC(=O)O[C@H](C)C(F)(F)F)[C@H](C)C1
6.99 to 8.32
CCCOc1cnc(O[C@@H]2C[C@H]3C(=O)N[C@]4(C(=O)NS(=O)(=O)C5(C)CC5)C[C@H]4/C=C\CC[C@H](C)C[C@@H](C)[C@H](NC(=O)O[C@H](C)C(F)(F)F)C(=O)N3C2)c2ccccc12
< 7.06
[2H]C([2H])([2H])C(OC(=O)N[C@@H]1C(=O)N2C[C@H](Oc3ncc(OC)c4ccccc34)C[C@H]2C(=O)N[C@]2(C(=O)NS(=O)(=O)C3(C)CC3)C[C@H]2/C=C\CC[C@@H](C)C[C@H]1CC)(C([2H])([2H])[2H])C(F)(F)F
8.30 to 9.00
C[C@@H]1CC/C=C\[C@@H]2C[C@@]2(C(=O)NS(=O)(=O)C2(F)CC2)NC(=O)[C@@H]2C[C@@H](Oc3ncc(OC4CC4)c4ccccc34)CN2C(=O)[C@@H](NC(=O)OC(C)(C)C)[C@H](C)C1
> 8.26

q: Please give the measured pEC50 for this compound: `COc1ccc2c(O[C@@H]3C[C@H]4C(=O)N[C@]5(C(=O)NS(=O)(=O)C6(C)CC6)C[C@H]5/C=C\CC[C@@H](C)C[C@@H](C)[C@H](NC(=O)OC(C)(C)C(F)(F)F)C(=O)N4C3)nc3c(c2c1)CCCO3`
a: 9.00 to 9.29

q: Please give the measured pEC50 for this compound: `CCOc1cnc(O[C@@H]2C[C@H]3C(=O)N[C@]4(C(=O)NS(=O)(=O)C5(C)CC5)C[C@H]4/C=C\CC[C@@H](C)C[C@@H](C)[C@H](NC(=O)OC(C)(C)C)C(=O)N3C2)c2ccc(OC)cc12`
a: > 8.26

q: Please give the measured pEC50 for this compound: [2H]C([2H])([2H])C(OC(=O)N[C@@H]1C(=O)N2C[C@H](Oc3nccc4cc(OC)ccc34)CC2C(=O)N[C@]2(C(=O)NS(=O)(=O)C3(C)CC3)C[C@H]2/C=C\CC[C@H](C)C[C@H]1C)(C([2H])([2H])[2H])C(F)(F)F (stereo partly shown)
a: > 8.26

q: Please give the measured pEC50 for this compound: `C[C@H]1CC/C=C\[C@@H]2C[C@@]2(C(=O)NS(=O)(=O)C2(CF)CC2)NC(=O)[C@@H]2C[C@@H](Oc3nccc4c5c(ccc34)OCCO5)CN2C(=O)[C@@H](NC(=O)OC(C)(C)C(F)(F)F)[C@H](C)C1`
a: > 8.26

q: Please give the measured pEC50 for this compound: `CC[C@@H]1C[C@H](C)CC/C=C\[C@@H]2C[C@@]2(C(=O)NS(=O)(=O)C2(C)CC2)NC(=O)[C@@H]2C[C@@H](Oc3nc4c(c5ccccc35)CCCO4)CN2C(=O)[C@H]1NC(=O)OC(C)(C)C(F)(F)F`
a: 9.30 to 10.00

q: Please give the measured pEC50 for this compound: `C[C@@H]1CC/C=C\[C@@H]2C[C@@]2(C(=O)NS(=O)(=O)C2(C)CC2)NC(=O)[C@@H]2C[C@@H](Oc3nccc4c5c(ccc34)OCCO5)CN2C(=O)[C@@H](NC(=O)OCC2(C)CC2)[C@H](C)C1`
a: > 8.26

q: Please give the measured pEC50 for this compound: `COc1cc2ccccc2c(O[C@@H]2C[C@H]3C(=O)N[C@]4(C(=O)NS(=O)(=O)C5CC5)C[C@H]4/C=C\CC[C@@H](C)C[C@@H](C)[C@H](NC(=O)OC(C)(C)C(F)(F)F)C(=O)N3C2)n1`
a: > 8.26
